Answer each item with its documented Inhibitory rate against NF-κB activation (%).
# System: NF-κ B activation
# assayMethodText: Inhibitory activity of NF-κB activation, luciferase reporter assay under TNF-α stimulation in HepG2
# Type: cell-based, human
# measurementSetup: Drug concentration at 1 μg/mL; HepG2, TNF-α 40 ng/ml, 4 hours
# Procedure: Measurement of Inhibitory Activity of NF-κB activation Using a transfection reagent (Effectene; QIAGEN), the human hepatoma cell strain HepG2 was transfected with a plasmid (pNF κ B-Luc Reporter Plasmid; […]) integrated with an oligonucleotide having five tandem copies of NF-κ B binding sequences([…]) on a upstream region of firefly luciferase gene(Luc) according to the QIAGEN's protocol, and the cells were incubated for 6 to 24 hours. […]
Numbers only, in %.

Some solved cases for reference:
Observed Inhibitory rate against NF-κB activation (%) on NF-κ B activation for COc1ccc(OC)c(NC(=O)c2cc(Br)ccc2O)c1 , please.
32.4

Record: O=C(Nc1cc(C(F)(F)F)cc(C(F)(F)F)c1)c1cc(Cl)ccc1O
95.7

Record: O=C(Nc1cc(C(F)(F)F)ccc1N1CCCCC1)c1cc(Cl)ccc1O
90.0

Record: COc1ccc(C(=O)Nc2ccccc2)cc1NC(=O)c1cc(Cl)ccc1O
52.6

Record: Cc1ccc(-c2ccccc2)cc1NC(=O)c1cc(Cl)ccc1O
93.7

Required: Inhibitory rate against NF-κB activation (%), one value per compound below.
1. O=C(Nc1cc(F)cc(F)c1)c1cc(Br)ccc1O
2. CCC(C)(C)c1ccc(Oc2ccccc2)c(NC(=O)c2cc(Cl)ccc2O)c1
3. Cc1ccc(S(=O)(=O)c2ccc(Cl)cc2NC(=O)c2cc(Cl)ccc2O)cc1

1: 91.8; 2: 97.6; 3: 46.7

* * *

# System: NF-κ B activation
# assayMethodText: Inhibitory activity of NF-κB activation, luciferase reporter assay under TNF-α stimulation in HepG2
# Format: cell-based, human
# measurementSetup: Drug concentration at 1 μg/mL; HepG2, TNF-α 40 ng/ml, 4 hours
propertyName: Inhibitory rate against NF-κB activation (%)
Numbers only, in %.

Some solved cases for reference:
I have this compound here, COc1cc(Cl)nc(NC(=O)c2cc(Cl)ccc2O)n1 , and I need its recorded Inhibitory rate against NF-κB activation (%).
25.5

Record: COc1cc(NC(=O)c2cc(Br)ccc2O)cc(OC)c1
38.3

Record: O=C(Nc1cc(C(F)(F)F)cc(C(F)(F)F)c1)c1cc(-c2cccs2)ccc1O
79.5

Required: Inhibitory rate against NF-κB activation (%), one value per compound below.
1. Cc1ccc(O)c(C(=O)Nc2cc(C(F)(F)F)ccc2C)c1
2. O=C(Nc1cc(C(F)(F)F)ccc1C(F)(F)F)c1cc(Br)ccc1O [compound 268]
3. CCOC(=O)c1sc(NC(=O)c2cc(-c3ccc(F)cc3F)ccc2O)nc1-c1ccccc1
4. O=C(Nc1cc(C(F)(F)F)cc(C(F)(F)F)c1)c1cc(-c2ccccc2)ccc1O
5. O=C(Nc1cc(C(F)(F)F)cc(C(F)(F)F)c1)c1cc(F)ccc1O
6. O=C(Nc1cc(Br)cc(C(F)(F)F)c1)c1cc(Cl)ccc1O
7. COc1ccc(C(F)(F)F)cc1NC(=O)c1cc(Br)ccc1O
8. CC(=O)Oc1ccccc1C(=O)Nc1cc(Cl)cc(Cl)c1

89.3
87.1
31.8
91.8
81.5
97.2
76.6
92.9

Required: Inhibitory rate against NF-κB activation (%), one value per compound below.
1. CON=C(C)c1ccc(O)c(C(=O)Nc2cc(C(F)(F)F)cc(C(F)(F)F)c2)c1
2. Cc1ccc(O)c(C(=O)Nc2cc(C(F)(F)F)cc(C(F)(F)F)c2)c1
3. O=C(Nc1cc(C(F)(F)F)cc(C(F)(F)F)c1)c1nc2ccccc2nc1O
4. CC(C)CCOc1ccc(OCCC(C)C)c(NC(=O)c2cc(Cl)ccc2O)c1

1. 94.7
2. 95.8
3. 46.3
4. 93.8

Required: Inhibitory rate against NF-κB activation (%), one value per compound below.
1. CCOC(=O)c1sc(NC(=O)c2cc(-c3ccc(F)cc3)ccc2O)nc1-c1ccccc1
2. CC(=NOCc1ccccc1)c1ccc(O)c(C(=O)Nc2cc(C(F)(F)F)cc(C(F)(F)F)c2)c1

1: 45.0; 2: 94.5

* * *

Answer each item with its documented Inhibitory rate against NF-κB activation (%).
# System: NF-κ B activation
# assayMethodText: Inhibitory activity of NF-κB activation, luciferase reporter assay under TNF-α stimulation in HepG2
# Format: cell-based, human
# measurementSetup: Drug concentration at 1 μg/mL; HepG2, TNF-α 40 ng/ml, 4 hours
One number for each entry, in %.

Some solved cases for reference:
Observed Inhibitory rate against NF-κB activation (%) on NF-κ B activation for O=C(Nc1cc(C(F)(F)F)ccc1F)c1cc(Cl)ccc1O , please.
93.1

Record: CN(C)S(=O)(=O)c1ccc(O)c(C(=O)Nc2cc(C(F)(F)F)cc(C(F)(F)F)c2)c1
42.2

***
Observed Inhibitory rate against NF-κB activation (%) on NF-κ B activation for Cc1ccc(O)c(C(=O)Nc2cc(C(F)(F)F)ccc2C(F)(F)F)c1 , please.
92.6

* * *

# Test system: AP-1 activation
# assayMethodText: Inhibition against AP-1 activation by TNF α stimulation, luciferase reporter assay in HeLa
# Format: cell-based, human
# measurementSetup: Drug concentration at 10 μg/mL, TNF-α 40 ng/ml, 4 hours
# Method: Measurement of Inhibition Against AP-1 Activation by TNF α Stimulation Using a transfection reagent(Effectene; QIAGEN), the human uterine cancer cell strain HeLa was transfected with a plasmid(pAP-1-Luc Reporter Plasmid: […]) integrated with an oligonucleotide having seven tandem copies of AP-1 binding sequences(TGACTAA) on an upstream region of firefly luciferase gene(Luc) according to the QIAGEN's protocol, and the cells were incubated for 6 to 24 hours. […]
propertyName: Inhibitory rate against AP-1 activation(%)
Numbers only, in %.

Observed Inhibitory rate against AP-1 activation(%) on AP-1 activation for O=C(Nc1cc(C(F)(F)F)cc(C(F)(F)F)c1)c1cc(-c2ccsc2)ccc1O [compound 29] , please.
51.5

Record: O=C(Nc1cc(Cl)cc(Cl)c1)c1cc(I)ccc1O [compound 127]
75.4

Record: O=C(Nc1cc(C(F)(F)F)cc(C(F)(F)F)c1)c1cc(Br)ccc1O [compound 6]
91.2

Record: O=C(Nc1nc(-c2ccccc2)c(-c2ccccc2)s1)c1cc(Br)ccc1O [compound 211]
29.7

Record: CCOC(=O)c1sc(NC(=O)c2cc(-c3ccccc3)ccc2O)nc1-c1ccccc1 [compound 225]
33.5

Required: Inhibitory rate against AP-1 activation(%), one value per compound below.
1. O=C(Nc1nc(C(F)(F)F)c(Br)s1)c1cc(Br)ccc1O [compound 187]
2. O=C(Nc1cc(C(F)(F)F)cc(C(F)(F)F)c1)c1cc(Cl)cnc1O [compound 75]
3. O=C(Nc1cc(Cl)cc(Cl)c1)c1cc(Cl)ccc1O [compound 125]

[49.9, 56.7, 74.8]

Observed Inhibitory rate against AP-1 activation(%) on AP-1 activation for O=C(Nc1cc(Cl)cc(Cl)c1)c1cc(Br)ccc1O [compound 126] , please.
83.8

* * *

# Tested on: NF-κ B activation
# assayMethodText: Inhibitory activity of NF-κB activation, luciferase reporter assay under TNF-α stimulation in HepG2
# Type: cell-based, human
# measurementSetup: Drug concentration at 1 μg/mL; HepG2, TNF-α 40 ng/ml, 4 hours
propertyName: Inhibitory rate against NF-κB activation (%)
Numbers only, in %.

Some solved cases for reference:
I have this molecule here, O=C(Nc1cc(C(F)(F)F)ccc1Cl)c1cc(Br)ccc1O , and I need its recorded Inhibitory rate against NF-κB activation (%).
88.9

Record: CC(C)(C)c1cc(NC(=O)c2cc([N+](=O)[O-])ccc2O)cc(C(C)(C)C)c1
91.2

Record: O=C(Nc1cc(C(F)(F)F)ccc1N1CCCC1)c1cc(Br)ccc1O
95.8

Record: COc1cc(NC(=O)c2cc(Cl)ccc2O)cc(C(F)(F)F)c1
94.6

Record: Cc1ccc(O)c(C(=O)Nc2cc(C(C)(C)C)cc(C(C)(C)C)c2)c1
38.9

Record: O=C(Nc1cc(C(F)(F)F)ccc1Oc1ccc(Cl)cc1)c1cc(Cl)ccc1O
95.0

Record: COc1ccc(OC)c(NC(=O)c2cc(Cl)ccc2O)c1
52.4

Record: CCOC(=O)c1sc(NC(=O)c2cc(Br)ccc2O)nc1C(F)(F)F
87.6

For the next question, use this molecule.
I have this molecule here, O=C(Nc1nc(C(F)(F)F)c(-c2ccccc2)s1)c1cc(Br)ccc1O , and I need its recorded Inhibitory rate against NF-κB activation (%).
85.1

* * *

# System: NF-κ B activation
# assayMethodText: Inhibitory activity of NF-κB activation, luciferase reporter assay under TNF-α stimulation in HepG2
# Type: cell-based, human
# measurementSetup: Drug concentration at 1 μg/mL; HepG2, TNF-α 40 ng/ml, 4 hours
Kind request: treat 80% as inclusive, so Inhibitory rate against NF-κB activation (%) at 80% or higher is 1 (yes), anything lower is 0 (no).

Solved entries:
Item O=C(Nc1cc(Cl)cc(Cl)c1)c1cc(Cl)ccc1O with Inhibitory rate against NF-κB activation (%) of 80% or above?
1 (yes)

Record: CC(C)(C)c1cc(NC(=O)c2cc(Cl)cnc2O)cc(C(C)(C)C)c1
0 (no)

Record: O=C(Nc1nnc(C(F)(F)F)s1)c1cc(Br)ccc1O
0 (no)

Record: O=C(Nc1cc(C(F)(F)F)ccc1Cl)c1cc(Cl)cnc1O
1 (yes)

Record: CCC(C)(C)c1ccc(O)c(NC(=O)c2cc(Cl)ccc2O)c1
1 (yes)

***
Item CC(C)(C)c1cc(C(=O)Nc2cc(C(F)(F)F)cc(C(F)(F)F)c2)c(O)c(C(C)(C)C)c1 with Inhibitory rate against NF-κB activation (%) of 80% or above?
0 (no)

Record: O=C(Nc1cc(C(F)(F)F)ccc1N1CCOCC1)c1cc(Cl)ccc1O
1 (yes)

Record: O=C(Nc1cc(F)cc(C(F)(F)F)c1)c1cc(Cl)ccc1O
1 (yes)

Record: COc1cccc(C(=O)Nc2cc(C(F)(F)F)cc(C(F)(F)F)c2)c1O
0 (no)

Record: O=C(Nc1cc(C(F)(F)F)ccc1C(F)(F)F)c1cc(Br)ccc1O [compound 83]
1 (yes)

Record: N#Cc1ccc(Oc2ccc(C(F)(F)F)cc2NC(=O)c2cc(Cl)ccc2O)cc1
1 (yes)

Record: COc1ccc(Oc2ccccc2)cc1NC(=O)c1cc(Cl)ccc1O
1 (yes)

Record: CCCCc1ccc([N+](=O)[O-])cc1NC(=O)c1cc(Cl)ccc1O
1 (yes)

Record: COC(=O)C(C#N)=Cc1ccc(O)c(C(=O)Nc2cc(C(F)(F)F)cc(C(F)(F)F)c2)c1
0 (no)

Record: CCOC(=O)c1c(NC(=O)c2cc(Cl)ccc2O)sc2c1CCCC2
1 (yes)

Record: O=C(Nc1cc(F)ccc1F)c1cc(Cl)ccc1O
1 (yes)

Record: CNC(=O)c1sc(NC(=O)c2cc(Br)ccc2O)nc1-c1ccccc1
0 (no)
